All values here come from BigSolDB 2.1.

Conditions: in NMP, 308.2 K
quantity-name: solubility (mole fraction)

                  compound_structure_string  quantitative_readout
0  C=C(C)[C@@H]1CC[C@]2(CO)CC[C@]3(C)[C@H](CC[C@@H]4[C@@]5(C)CC[C@H](O)C(C)(C)[C@@H]5CC[C@]43C)[C@@H]12               0.00615

###

Settings: in n-hexadecane, 313.2 K
quantity-name: solubility (mole fraction)

                  compound_structure_string  quantitative_readout
0  C=C(C)[C@@H]1CC[C@]2(CO)CC[C@]3(C)[C@H](CC[C@@H]4[C@@]5(C)CC[C@H](O)C(C)(C)[C@@H]5CC[C@]43C)[C@@H]12               7.6e-05
